experiment: Acute toxicity by the oral route in the mouse; type: in vivo; settings: in vivo, po, LD 50
property_label: LD50 at 48 h (mg/kg)

INSERT INTO assay_data (molecule, measured_result) VALUES
  ('Cc1ccccc1OCC(O)CN(C(=N)NC(=O)c1ccccc1)C(C)C (stereo not shown) [SCS 149]', 560);

----------
assay: Acute toxicity by the intravenous route in the mouse; settings: in vivo, male mice, 14 days after treatment
property_label: LD50 at 336 h (mg/kg)

INSERT INTO measurements (compound, measured_result) VALUES
  ('Cc1ccccc1OCC(O)CN(C(=N)NC(=O)c1ccccc1)C(C)C (stereo not shown) [SCS 149]', 37.2);
